# testedSystem: T1, human PD-1 expressed on cells (CHO human PD-1 cells) (human, UniProt Q15116 21-288)
# T1 construct: also called CHO TREX human PD-1 cell line; CHO PD-1
# T1 sequence (Q15116 21-288): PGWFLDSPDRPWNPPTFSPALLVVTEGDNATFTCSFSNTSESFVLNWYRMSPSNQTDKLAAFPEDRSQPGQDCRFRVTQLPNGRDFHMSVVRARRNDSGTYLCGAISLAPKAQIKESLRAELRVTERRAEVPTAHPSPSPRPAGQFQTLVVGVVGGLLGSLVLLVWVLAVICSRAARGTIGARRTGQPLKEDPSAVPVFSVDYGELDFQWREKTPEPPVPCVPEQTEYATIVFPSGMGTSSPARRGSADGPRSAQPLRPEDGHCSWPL
# measurementProtocol: FMAT epitope competition on CHO human PD-1 cells; competitor 1 nM 1.1-Strep
pIC50: −log10 of the molar value.
reportedEndpoint: pIC50

Some binders with known pIC50 results, for comparison:
In: Give the reported value of pIC50 for this record: Humabody® 1.91 (VHH, human VH single domain antibody) VHH: EVQLVESGGGLVKPGGSLRLSCAASGFTFSDQSMTWMRQAPGKGLEWVSYISSGGGVKFYADSVKGRFTISRDNAKNSLYLQMNSLRAEDTAVYYCAREAPLRLGESPHDAFDISGQGTMVTVSS
Out: 8.85

In: Give the reported value of pIC50 for this record: Humabody® 1.59 (VHH, human VH single domain antibody) VHH: QVQLVESGGGLVKPGGSLRLSCAASGFTFSDNSMSWMRQAPGKGLEWVSYISSGGSVKFYADSVKGRFTISRDNAKNSLYLQMNSLRADDTAVYYCAREAPLRLGESPHDAFDIWGQGTMVTVSS
Out: 8.11

In: Give the reported value of pIC50 for this record: Humabody® 1.46 (VHH, human VH single domain antibody) VHH: QVQLVESGGGLVKPGGSLRLSCAASGFTFSDSSMSWMRQAPGKGLEWVSYISSGGGVIFYADSVKGRFTISRDNAKNSLYLQMNSLRADDTAVYYCAREAPLRLGESPHDAFDIWGQGTMVTVSS
Out: 8.74

In: Give the reported value of pIC50 for this record: Humabody® 1.45 (VHH, human VH single domain antibody) VHH: QVQLVESGGGLVKPGGSLRLSCAASGFTFSDYSMSWMRQAPGKGLEWVSYISSGGGVIFYADSVKGRFTISRDNAKNSLYLQMNSLRADDTAVYYCAREAPLRLGESPHDAFDIWGQGTMVTVSS
Out: 8.60

In: Give the reported value of pIC50 for this record: Humabody® 1.44 (VHH, human VH single domain antibody) VHH: QVQLVESGGGLVKPGGSLRLSCAASGFTFSDNSMTWMRQAPGKGLEWVSYISSGGAVKFYADSVKGRFTISRDNAKNSLYLQMNSLRADDTAVYYCAREAPLRLGESPHDAFDIWGQGTMVTVSS
Out: 8.72

a: Humabody® 1.94 (VHH, human VH single domain antibody) VHH: EVQLVESGGGLVKPGGSLRLSCAASGFTFSDWSMTWMRQAPGKGLEWVSYISSGGGVKFYADSVKGRFTISRDNAKNSLYLQMNSLRAEDTAVYYCAREAPLRLGESPHDAFDISGQGTMVTVSS
b: Humabody® 1.90 (VHH, human VH single domain antibody) VHH: EVQLVESGGGLVKPGGSLRLSCAASGFTFSDVSMTWMRQAPGKGLEWVSYISSGGGVKFYADSVKGRFTISRDNAKNSLYLQMNSLRAEDTAVYYCAREAPLRLGESPHDAFDISGQGTMVTVSS
In: Param pair: a , b . Output: the one whose pIC50 is numerically greater. In your reply, give the label of the chosen option.
Out: b

Source: patent US20200239573A1
